# PROTOCOL DESCRIPTION: Compound stability in rat liver microsomes
# Format: in vitro ADME
# ASSAY SETUP: pH 7.4, in vivo CLint extrapolated
REPORTED PROPERTY: CLint scaled (mL/min/kg)
Your answer should be a plain number; it is taken to be in mL/min/kg.

{"MOLECULE": "CC(=O)Nc1cc(Oc2ccc(NC(=O)c3c4n(n(-c5ccccc5)c3=O)CCC4)cc2)ccn1 [Ex. 3]", "VALUE UNITS": "mL/min/kg", "RECORDED NUMBER": 7.26}

// CC(=O)Nc1cc(Oc2ccc(NC(=O)c3c4n(n(-c5ccccc5)c3=O)CCOC4)nc2)ccn1 [Ex. 12] : CLint scaled value = 2.49

# molecule Nc1cc(Oc2ccc(NC(=O)c3c4n(n(-c5ccccc5)c3=O)CCC4)cc2)ccn1 [Ex. 1] ; its CLint scaled = 27.9
